B1: ANKRD40 (parent)
chain: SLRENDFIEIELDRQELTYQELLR

# Variants of: B1
# measurement_description: protein stability index of a GFP-peptide fusion (GPS, HEK-293T) (PSI 1-6); higher = more stable;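 also: lentivirally expressed fusions sorted by FACS into six bins by GFP to DsRed ratio, PSI derived from sequencing read proportions per bin multiplied by bin number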
# test_conditions: c terminus: a fixed tail appended
property: protein stability index

mutant_code=R24Y experimental_result=2.43
mutant_code=S1L experimental_result=2.84
mutant_code=L23I experimental_result=2.76
mutant_code=L2C experimental_result=2.99
mutant_code=R24H experimental_result=2.77
mutant_code=R24T experimental_result=3.06
mutant_code=E9K experimental_result=2.4
mutant_code=L12W experimental_result=2.8
mutant_code=L22H experimental_result=3.42
mutant_code=L22P experimental_result=3.56
mutant_code=L23K experimental_result=3.85
mutant_code=R3M experimental_result=2.54
mutant_code=L17F experimental_result=2.61
mutant_code=E16P experimental_result=3.42
mutant_code=L12A experimental_result=3.92
mutant_code=L22Q experimental_result=4.02
mutant_code=T18H experimental_result=3.2
mutant_code=E4P experimental_result=3.21
mutant_code=L23A experimental_result=3.73
mutant_code=R14W experimental_result=1.79
mutant_code=F7T experimental_result=3.99
mutant_code=Q20I experimental_result=1.83
